The values you see were collected from patent US20090306122A1.

List of log10 of IC50 tested on IGF1-R kinase (Homo sapiens).
Sequence (P08069 31-1367): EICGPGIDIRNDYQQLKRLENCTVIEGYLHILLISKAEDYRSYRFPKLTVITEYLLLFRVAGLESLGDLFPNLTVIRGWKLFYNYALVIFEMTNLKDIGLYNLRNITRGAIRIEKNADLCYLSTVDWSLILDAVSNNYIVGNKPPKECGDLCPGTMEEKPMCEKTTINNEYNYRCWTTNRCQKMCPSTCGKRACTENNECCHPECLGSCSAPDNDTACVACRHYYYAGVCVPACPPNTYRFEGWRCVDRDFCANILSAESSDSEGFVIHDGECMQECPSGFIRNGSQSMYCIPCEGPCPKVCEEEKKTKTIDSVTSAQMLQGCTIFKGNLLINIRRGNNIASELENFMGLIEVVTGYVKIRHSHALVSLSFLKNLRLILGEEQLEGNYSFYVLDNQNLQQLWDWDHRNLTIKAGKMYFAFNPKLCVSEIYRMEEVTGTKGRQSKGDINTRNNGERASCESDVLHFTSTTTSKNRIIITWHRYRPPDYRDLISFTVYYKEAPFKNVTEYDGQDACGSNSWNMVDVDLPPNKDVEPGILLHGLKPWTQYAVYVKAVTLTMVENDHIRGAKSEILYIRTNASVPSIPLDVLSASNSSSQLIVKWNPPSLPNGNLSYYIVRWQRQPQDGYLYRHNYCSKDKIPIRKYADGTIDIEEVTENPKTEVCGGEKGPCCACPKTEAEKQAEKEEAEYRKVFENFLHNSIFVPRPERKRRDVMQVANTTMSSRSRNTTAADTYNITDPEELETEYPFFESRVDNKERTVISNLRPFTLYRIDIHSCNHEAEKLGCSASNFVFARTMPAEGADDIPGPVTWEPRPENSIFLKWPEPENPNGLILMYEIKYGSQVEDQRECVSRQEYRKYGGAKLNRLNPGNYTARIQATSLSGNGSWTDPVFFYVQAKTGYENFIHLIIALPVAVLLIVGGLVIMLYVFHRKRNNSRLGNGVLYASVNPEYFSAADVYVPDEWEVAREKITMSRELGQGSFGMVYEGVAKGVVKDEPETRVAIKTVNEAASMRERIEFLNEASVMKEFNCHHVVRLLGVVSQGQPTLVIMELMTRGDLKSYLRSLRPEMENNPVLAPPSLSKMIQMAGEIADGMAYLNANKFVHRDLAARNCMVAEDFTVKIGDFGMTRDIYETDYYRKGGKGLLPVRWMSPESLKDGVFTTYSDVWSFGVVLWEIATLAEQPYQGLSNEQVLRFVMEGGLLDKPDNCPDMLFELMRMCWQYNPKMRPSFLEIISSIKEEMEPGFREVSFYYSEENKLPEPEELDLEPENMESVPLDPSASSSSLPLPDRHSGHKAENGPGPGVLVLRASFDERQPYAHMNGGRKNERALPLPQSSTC
Scale: log10; quantity: IC50; unit before log: nM

O=C1CCCN1C1CC(c2cccc3c2OCO3)N2CCc3cccc1c32 (stereo not drawn)    3.68
O=C1CCCN1C1CC(c2ccccc2Br)N2CCc3cccc1c32 (stereo not drawn)    3.40
O=C1CCCN1C1CC(c2ccccc2F)N2CCc3cccc1c32 (stereo not drawn)    3.18
O=C1CCCN1C1CC(c2ncc(C(F)(F)F)cc2Cl)N2CCc3cccc1c32 (stereo not drawn)    3.23
O=C1CCCN1C1CC(c2ccccc2OCc2ccccc2)N2CCc3cccc1c32 (stereo not drawn)    3.04

Ask | Report log10 of IC50 for O=C1CCCN1C1CC(c2cccc(-c3cccc(OC(F)(F)F)c3)c2)N2CCc3cccc1c32 (stereo not drawn) tested on IGF1-R kinase (Homo sapiens).
Reply | 4.32

Ask | Report log10 of IC50 for O=C1CCCN1C1CC(c2cccc(OCc3ccccc3)c2)N2CCc3cc(F)cc1c32 (stereo not drawn) tested on IGF1-R kinase (Homo sapiens).
Reply | 3.43

Ask | Report log10 of IC50 for O=C1CCCN1C1CC(c2ccc(-c3ccccc3[N+](=O)[O-])o2)N2CCc3cccc1c32 (stereo not drawn) tested on IGF1-R kinase (Homo sapiens).
Reply | 2.41

Ask | Report log10 of IC50 for CC(C)(C)c1ccc(C2CC(N3CCCC3=O)c3cccc4c3N2CC4)cc1 (stereo not drawn) tested on IGF1-R kinase (Homo sapiens).
Reply | 3.20

Ask | Report log10 of IC50 for COc1ccccc1C1CC(N2CCCC2=O)c2cccc3c2N1CC3 (stereo not drawn) tested on IGF1-R kinase (Homo sapiens).
Reply | 3.78

Ask | Report log10 of IC50 for COc1cccc(C2CC(N(C)C(C)=O)c3cccc4c3N2CC4)c1 (stereo not drawn) tested on IGF1-R kinase (Homo sapiens).
Reply | 3.32

Ask | Report log10 of IC50 for Cc1ccc(C2CC(N3CCCC3=O)c3cccc4c3N2CC4)cc1[N+](=O)[O-] (stereo not drawn) tested on IGF1-R kinase (Homo sapiens).
Reply | 3.52

Ask | Report log10 of IC50 for O=C1CCCN1C1CC(c2cccc(Cl)c2Cl)N2CCc3cccc1c32 (stereo not drawn) tested on IGF1-R kinase (Homo sapiens).
Reply | 3.70

Ask | Report log10 of IC50 for O=C1CCCN1C1CC(c2ccc(Br)cc2F)N2CCc3cccc1c32 (stereo not drawn) tested on IGF1-R kinase (Homo sapiens).
Reply | 3.32

Ask | Report log10 of IC50 for O=C1CCCN1C1CC(c2ccc(Cl)c([N+](=O)[O-])c2)N2CCc3cccc1c32 (stereo not drawn) tested on IGF1-R kinase (Homo sapiens).
Reply | 3.78
